Please provide measured cytotoxicity at 10 µM for the entries that follow.
test: Toxicity liver stage against HepG2, at 10uM; format: cell-based; set-up: test concentration 10 uM, cell line HepG2-A16-CD81EGFP; details: human, HepG2-A16-CD81EGFP cells; read-out: INHIBITION
Provide the reading as a plain figure in %.

Asked: Give the measured cytotoxicity at 10 µM of "Cc1noc(C)c1CN1C[C@@H](OCc2ccccn2)[C@H]2OCCC[C@H]21" .
Given back: -3.14

Asked: Give the measured cytotoxicity at 10 µM of "Cc1nn(C)c(N2CCOCC2)c1CNCc1ccc(N(C)C)nc1" .
Given back: -14.4

Asked: Give the measured cytotoxicity at 10 µM of CC(C)NC(=O)N1Cc2nccn2CC(CN2CCCC2)C1 (configuration not stated) .
Given back: -75.8

Asked: Give the measured cytotoxicity at 10 µM of "Cc1nnc(CN(Cc2ccccc2Cl)C2CCCC2)o1" .
Given back: 0.256

Asked: Give the measured cytotoxicity at 10 µM of Cn1ccnc1CN1CCC2(CC1)CC(Nc1ccccn1)CO2 (configuration not stated) .
Given back: -7.97

Asked: Give the measured cytotoxicity at 10 µM of CC(=O)N(Cc1ncc(C)o1)C1CCN(Cc2ccon2)C1 (configuration not stated) .
Given back: -9.03

Asked: Give the measured cytotoxicity at 10 µM of "CCc1ncc2c(n1)CN(CC(=O)Nc1cccnc1)CC2" .
Given back: -1.1

Asked: Give the measured cytotoxicity at 10 µM of Cc1cccc(-c2noc(CNC(C)Cn3cc(C)cn3)n2)c1 (configuration not stated) .
Given back: -2.87

Asked: Give the measured cytotoxicity at 10 µM of OC(CN1CCC(c2ccn[nH]2)CC1)c1cccc(C(F)(F)F)c1 (configuration not stated) .
Given back: -12.1

Asked: Give the measured cytotoxicity at 10 µM of CC(C)COC(C)C(=O)NCCNS(C)(=O)=O (configuration not stated) .
Given back: -5.26

Asked: Give the measured cytotoxicity at 10 µM of "CCC1=NN2C(=N)C(=Cc3cccn3-c3ccc(Br)cc3)C(=O)N=C2S1" .
Given back: -7.83

Asked: Give the measured cytotoxicity at 10 µM of "O=C(c1cccnc1)N1CCN2C[C@H](Oc3cncnc3)C[C@H]2C1" .
Given back: 8.1

Asked: Give the measured cytotoxicity at 10 µM of "Cc1nn(C)c(C)c1CC(=O)NCc1ccnc(OC2CCCC2)c1" .
Given back: -0.883

Asked: Give the measured cytotoxicity at 10 µM of "CNC(=O)c1cnc2n1CCN(Cc1cccnc1)C2" .
Given back: 8.88

Asked: Give the measured cytotoxicity at 10 µM of "Cc1noc(C)c1CC(=O)NCCN1CCN(S(C)(=O)=O)CC1" .
Given back: -5.87

Asked: Give the measured cytotoxicity at 10 µM of "Cc1ccc2c(n1)N(CCN(C)C)CCN(C(=O)c1ccc[nH]1)C2" .
Given back: 6.59

Asked: Give the measured cytotoxicity at 10 µM of "Cc1ccc([C@@H]2CN(S(=O)(=O)N(C)C)C[C@H]2N(C)C)cc1" .
Given back: 2.47

Asked: Give the measured cytotoxicity at 10 µM of Cc1cc(CN2CCC(CNC(=O)c3cnc(C)nc3C)C2)[nH]n1 (configuration not stated) .
Given back: -140

Asked: Give the measured cytotoxicity at 10 µM of Cc1csc(C(C#N)C(=O)NCc2ccccc2)n1 (configuration not stated) .
Given back: 4.02

Asked: Give the measured cytotoxicity at 10 µM of "Cn1cc(NC(=O)NCc2ccoc2)ccc1=O" .
Given back: 4.14

Asked: Give the measured cytotoxicity at 10 µM of CN(Cc1nccn1C)C1CCCN(Cc2noc(C3CC3)n2)C1 (configuration not stated) .
Given back: -3.54

Asked: Give the measured cytotoxicity at 10 µM of "CC(=O)N1CCCN(C(=O)NCC2(c3cccs3)CCCC2)CC1" .
Given back: 3.23

Asked: Give the measured cytotoxicity at 10 µM of "COCCN1CC[C@@H]2CN(Cc3nccn3C)C[C@@H]2C1" .
Given back: -76.5

Asked: Give the measured cytotoxicity at 10 µM of "COc1ccccc1CN1C(=O)O[C@@H]2CN(c3nccs3)C[C@@H]21" .
Given back: 6.27

Asked: Give the measured cytotoxicity at 10 µM of "CCc1ccc(CN(CCN(C)C)Cc2ccc(C)s2)nc1" .
Given back: -43

Asked: Give the measured cytotoxicity at 10 µM of Cc1cnn(CC2CCCN2C(=O)c2cc3ccccc3[nH]c2=O)c1 (configuration not stated) .
Given back: 2.38

Asked: Give the measured cytotoxicity at 10 µM of "CN(C)c1ccc(C(=O)N2CCC(c3cc4cnccc4[nH]3)CC2)cc1" .
Given back: 1.12

Asked: Give the measured cytotoxicity at 10 µM of CCn1ncnc1CN1CCOC(Cc2cccc3ccccc23)C1 (configuration not stated) .
Given back: 2.53

Asked: Give the measured cytotoxicity at 10 µM of "CCn1ccc2ccnc(CC3CN(C(=O)c4ccc(F)cc4)C3)c21" .
Given back: -3.3

Asked: Give the measured cytotoxicity at 10 µM of "O=C(COCC1CC1)Nc1ncn(CC(=O)N2CCCCCC2)n1" .
Given back: -11.9

Asked: Give the measured cytotoxicity at 10 µM of "Cc1nc(=O)c(CC(=O)N2C[C@H]3CC[C@@H](C2)N(CC2CCC2)C3)c[nH]1" .
Given back: 1.43

Asked: Give the measured cytotoxicity at 10 µM of Cc1nccc(CNC(=O)NCC(C)Oc2ccccc2F)n1 (configuration not stated) .
Given back: -13.2

Asked: Give the measured cytotoxicity at 10 µM of "Cc1cccc(C(=O)N2C[C@@H](OCc3cccnc3)[C@H]3OCCC[C@@H]32)n1" .
Given back: -1.75

Asked: Give the measured cytotoxicity at 10 µM of "CC(=O)c1ccccc1-c1cc(C(=O)O)cc(S(=O)(=O)NC(C)C)c1" .
Given back: 0.476

Asked: Give the measured cytotoxicity at 10 µM of "O=C(NC1CC1)N1CCc2ncc(CN3CCOCC3)n2CC1" .
Given back: -76.5

Asked: Give the measured cytotoxicity at 10 µM of COCCCNC(=O)CN1CCOC(c2ccccc2)C1 (configuration not stated) .
Given back: 18.6

Asked: Give the measured cytotoxicity at 10 µM of CC(c1ccccn1)N(C)Cc1ccc(-n2cncn2)cc1 (configuration not stated) .
Given back: 5.33

Asked: Give the measured cytotoxicity at 10 µM of "COc1ccc(CN2CCOC[C@H](OCc3ccccc3)C2)cc1" .
Given back: 2.79

Asked: Give the measured cytotoxicity at 10 µM of CCc1nnc2n1CCN(C(C(=O)NC1CC1)c1ccc(F)cc1)C2 (configuration not stated) .
Given back: 2.16

Asked: Give the measured cytotoxicity at 10 µM of "Cn1cccc1C(=O)OCCNC(=O)c1ccccc1" .
Given back: 14.7

Asked: Give the measured cytotoxicity at 10 µM of "CCN(CC(=O)NC(C)C)C(=O)C(C)(C)c1ccc2c(c1)OCCO2" .
Given back: -2.79

Asked: Give the measured cytotoxicity at 10 µM of "Cc1cc(C)cc(C(=O)N2CCN(C(=O)N(C)C)CC2(C)C)c1" .
Given back: 1.98

Asked: Give the measured cytotoxicity at 10 µM of "NC1(c2nc(-c3ccccc3)cc(=O)[nH]2)CCCCC1" .
Given back: 7.25

Asked: Give the measured cytotoxicity at 10 µM of "Cn1ncnc1NCc1ccccc1Cl" .
Given back: -8.04

Asked: Give the measured cytotoxicity at 10 µM of COC(=O)C(CNC(=O)Nc1cn[nH]c1)Cc1cccc(C)c1 (configuration not stated) .
Given back: 1.37

Asked: Give the measured cytotoxicity at 10 µM of COC(=O)c1ccc(N2CCN(C(=O)c3ccncc3)C(C)C2)cc1 (configuration not stated) .
Given back: -6.38

Asked: Give the measured cytotoxicity at 10 µM of "CN(C)c1cccc(C(=O)Nc2ccn(CCc3ccncc3)n2)c1" .
Given back: 0.209

Origin of measurements: ChEMBL document CHEMBL4513216
